assay: NCI Yeast Anticancer Drug Screen. Data for the cln2 rad14 strain (AID 165); settings: S. cerevisiae cln2 rad14 strain, at 50.0 µM
About 79,000 compounds went through this panel and 15% of them were active in at least one assay; those are over-represented in the sample as a whole. Calls of active or inactive are those of the source. Rule as the data show it: active = growth inhibition above about 70%; inactive = the rest.
Outcomes: YES (active), NO (inactive)

>>> print(df.to_string())
                                    molecule  qualitative_label
 0                  CC1(C)NC(=O)C(C)(C)NC1=O                 NO
 1  C=CCN1/C(=C/C=C\c2sc3ccccc3[n+]2CC=C)Sc2ccccc21                YES
 2                    CCOC(=O)c1csc(=S)[nH]1                 NO
 3  CCOC(=O)C12CCSC1C1(C#N)C(C#N)=CC2(N=P(c2ccccc2)(c2ccccc2)c2ccccc2)n2c(=O)n(-c3ccccc3)c(=O)n21 (stereo unspecified)                 NO
 4  CC(CN(C)C)C(/C=C/c1ccc(Cl)cc1)=N\NC(=O)c1ccccc1 (stereo unspecified)                 NO
 5                O=C1C=C(Cl)C(=O)C(Cl)=C1Cl                YES
 6           C=CC1(c2ccc(-c3ccccc3)cc2)OCCO1                 NO
 7    CCCCCCCCCCCCOCC[N+](CCO)(CCO)Cc1ccccc1                YES
 8  CCOC(=O)NN(C(=O)OCC)c1ccc(N=Nc2ccc(OC)cc2)n1C                YES
 9                Fc1cccc(NC(=S)SCc2ccco2)c1                 NO
10  CC(C)(C)c1cc(C(P(=O)(c2ccccc2)c2ccccc2)P(=O)(c2ccccc2)c2ccccc2)cc(C(C)(C)C)c1O                YES
11  OC(CN1CCc2ccccc2C1)c1ccc2ccccc2c1 (stereo unspecified)                 NO
12  O=[N+]([O-])C1C2C=CC(C2)[C@H]1c1ccc(Cl)cc1Cl (stereo partly specified)                YES
13            CC(C)[CH2][Ge]([Cl])([Cl])[Cl]                YES
14  O=C(C[n+]1cccc2ccccc21)c1ccc(-c2ccc(C(=O)C[n+]3cccc4ccccc43)cc2)cc1                 NO
15  COc1nc2nc(Cl)cc(C)c2c2ccccc12 (tested in a mixture with another compound)                YES
16  CC(=O)N1c2ccccc2Sc2ccc3ccc(C(=O)CCl)cc3c21                YES
17    CCCCCCCCCCCC(=O)OC/C=C/COC(=O)c1ccccc1                 NO
18  C=COCCN1CCN(CCCN2c3ccccc3Sc3ccc(C(F)(F)F)cc32)CC1                YES
19     CC/C=C(\C)CC(C)O (stereo unspecified)                 NO
20                         CCCCCCCCCCCCCCCCN                YES
21    Cc1cc(C)cc([C@H](C)N=Cc2cc(Br)ccc2O)c1                YES
22    Cc1cc(N=[N+]=[N-])c2cc(C3CCCCC3)ccc2n1                YES
23  CC1=C(C)C(=O)C(C(C)(C)CC(=O)n2cc(F)c(=O)[nH]c2=O)=C(C)C1=O                 NO
24              CCOC(=O)n1c2ccccc2c(=O)n1CCO                 NO
25  CC(NC(=O)C(NC(=O)C(NC(=O)C(F)(F)F)C(C)C)C(C)C)C(=O)Oc1c(Cl)c(Cl)c(Cl)c(Cl)c1Cl (stereo unspecified)                YES
26  Clc1ccc(CN2CCN(Cc3ccc(Cl)cc3)C2c2ccc(Cl)cc2)cc1                 NO
27  CCc1cccc(CC)c1NC1=C(Cl)C(=O)c2ccccc2C1=O                 NO
28  Cc1cccc(N2C(=O)c3ccccc3C2(c2ccccc2)N2CCCCC2)c1 (stereo unspecified)                YES
29     C(=Nc1ccccc1)c1cn(Cc2ccccc2)c2ccccc12                 NO
30  OC(C1CCC=NN1C(O)(C(F)(F)F)C(F)(F)F)(C(F)(F)F)C(F)(F)F (stereo unspecified)                YES
31   CCOC(=O)C(=N\Nc1ccccc1C)/C(C)=N\NC(N)=S                YES
32  O=C(O)/C=C/C(=O)Nc1cc2c(cc1Br)-c1ccccc1C2Br (stereo unspecified)                 NO
33  Cc1ccc(O)c(C(C)c2ccccc2)c1 (stereo unspecified)                YES
34                 CCCCCCCCCCCCCCCCSC(=NC)NC                YES
35  Nc1ccccc1SC(/C=C/NNC1=NC(c2ccccc2)C(c2ccccc2)=NN1)c1ccccc1 (stereo unspecified)                YES
36  Cc1ccc(S(=O)(=O)OCCCCOS(=O)(=O)c2ccc(C)cc2)cc1                 NO
37                 COc1ccccc1NC(=O)c1ccccc1F                 NO
38             COc1ccc(Cc2nncc3ccccc23)cc1OC                YES
39                         COc1ccc(CCCCI)cc1                YES
40        CN(C)C(=O)c1cc(Cl)cc(-c2ccccc2)c1O                 NO
41  CCCC1=C(c2ccccc2)C(O)(c2ccccc2)C(CCC)C1=O (stereo unspecified)                YES
42  CCCC(C)NCCCCCNc1cc(OC)cc2cccnc12 (stereo unspecified)                 NO
43  O=C1CSC(c2c[nH]c3ccccc23)N1c1cccc(Cl)c1 (stereo unspecified)                YES
44       COc1cc(O)c2c(=O)c3cccc(C)c3[nH]c2c1                 NO
45  O=C(Nc1ccccc1)OCCN=C1c2ccccc2CCc2ccccc21                YES
